Measured efflux ratio at 10 µM by item
tested on: MDR1; assay: Efflux ratio in MDCK cells expressing MDR1 at 10 uM; type: ADME, cell-based, Canis lupus familiaris; conditions: dog
No unit in the answer, please; the number alone is enough.

CCN(CC)CCCS(=O)(=O)c1ccc2nc(NC(=O)NC(=O)c3cc(-n4cccc4)ccc3Cl)sc2c1 : 42

Prompt line: I am curious: what efflux ratio at 10 µM value has been reported for `CN1CCN(CCCS(=O)(=O)c2ccc3nc(NC(=O)NC(=O)c4cc(-n5cccc5)ccc4Cl)sc3c2)CC1` ?
Response line: 38

Prompt line: So what does the record say about efflux ratio at 10 µM for `CN1CCC(S(=O)(=O)c2ccc3nc(NC(=O)NC(=O)c4cc(N5CCCC5)c(C#N)cc4Cl)sc3c2)CC1` ?
Response line: 0.47

Prompt line: Fill blank: measured efflux ratio at 10 µM of the compound `Cc1ccnn1-c1ccc(Cl)c(C(=O)NC(=O)Nc2nc3ccc(S(=O)(=O)C4CCN(C)CC4)cc3s2)c1` is ____.
Response line: 15

Prompt line: Data request, read-out efflux ratio at 10 µM, for `CCOc1ccc(Cl)c(C(=O)NC(=O)Nc2nc3ccc(S(=O)(=O)CCCN4CCN(C)CC4)cc3s2)c1`
Response line: 5

Prompt line: // query efflux ratio at 10 µM value for entry `Cc1ccn(-c2ccc(Cl)c(C(=O)NC(=O)Nc3nc4ccc(S(=O)(=O)CCCN5CCN(C)CC5)cc4s3)c2)n1`
Response line: 14

Prompt line: Please give the measured efflux ratio at 10 µM for this compound: `Cc1ccn(-c2ccc(C(=O)NC(=O)Nc3nc4ccc(S(=O)(=O)CCCN5CCN(C)CC5)cc4s3)c(Cl)c2)n1`
Response line: 0.86

Prompt line: Report efflux ratio at 10 µM for `CCN(CC)CCCS(=O)(=O)c1ccc2nc(NC(=O)NC(=O)c3cc(-n4cccn4)ccc3Cl)sc2c1` please.
Response line: 12
